Attribution: PubChem BioAssay

Assay: FRG1 expression reporter modulators in myotubes – cell-based, C2C12 myotubes, firefly/Renilla luciferase, luminescence, FRG1 inhibition for FSHD, primary screen (AID 1084)
Details: FRG1 promoter luciferase, higher = more signal, called active from +8 up or from −8 down
Quick rule for you: z-score at 0.005 or higher means 1.0, lower means 0.0.

1) O=C1OCCC=C[C@H]2OC34C=CCN(CCN5CCOCC5)C(=O)[C@H]3N(CCO)C(=O)[C@@H]4C12 (some centres not stated) :: 0.0
2) CCN(CC)c1ccc(N2CC=CC34O[C@@H]5/C=C\CCC(C)OC(=O)C5[C@H]3C(=O)N(CCCCCCO)[C@@H]4C2=O)cc1 (some centres not stated) :: 1.0
3) COCCCNC(=O)[C@@]1(Sc2ccc(C)cc2)CC(=O)N(Cc2ccccc2)[C@@H]1c1ccc(CO)cc1 :: 0.0
4) C/C=C/[C@H](CCn1cc([C@H](O)c2ccccc2)nn1)[Si](C)(C)c1ccc(OC)cc1 :: 0.0
5) COC(=O)[C@@]1(Cc2ccc(OC)cc2)[C@H]2c3cc(C(=O)N4CCCC4)n(CCc4ccccn4)c3C[C@H]2CN1C(=O)c1ccccc1 :: 1.0
6) COCCOC(=O)N1C(=O)[C@@]2(c3cc(C#CCC(C(=O)OC)C(=O)OC)ccc31)[C@H](c1ccccc1OCCO)N1[C@H](c3ccccc3)[C@H](c3ccccc3)OC(=O)[C@H]1[C@@H]2C(=O)Nc1nc2ccccc2s1 :: 1.0
7) O=c1cccc(-c2ccccc2)o1 :: 1.0

* * *

Catalogue of z-score values
Assay: optical density change of DRC41 E. coli – strain DRC41, OD650, 24 h, E. coli filamentation project, primary screen (AID 1093);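 also: MC1000 strain lacking acrAB efflux and sulA so SOS filamentation is blocked; test concentration not given here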
Conditions: E. coli DRC41 growth, higher = more signal, called active from +8 up or from −8 down
measurement-name: z-score

1. CN(C)CCCCCCNC(=O)[C@@H]1C[C@@H]2C(=O)N[C@@H](Cc3ccccc3)C(=O)N2[C@@H]1c1cccc(OCCO)c1 :: 0.698
2. C[N+](C)(C)CCCCNC(=O)[C@H]1C[C@H]2C(=O)N3CCC[C@H]3C(=O)N2[C@H]1c1ccc(O)cc1 :: -0.0773
3. COc1ccc(CCNC(=O)[C@@]2(C)c3ccccc3C(=O)N(Cc3ccccc3)[C@H]2c2ccc(CO)cc2)cc1 :: -0.0282
4. COc1ccc(C(=O)Nc2cccc(CN3C(=O)[C@@]4(O[C@@H](CCn5cc([C@H](O)c6ccccc6)nn5)[C@H]([Si](C)(C)c5ccc(OC)cc5)[C@H]4C)c4ccccc43)c2)cc1 :: -0.594
5. C=C[C@@H](C)[C@@H](OC(=O)Nc1ccc(OC)cc1)c1ccc(O)c2ccccc12 :: 1.02
6. C=CCN1C(=O)[C@]2(COC(c3ccc(OCCCO)cc3)=N2)Cc2ccccc21 :: 1.09
7. Cc1ccc(N2C(=O)c3ccccc3[C@](C)(C(=O)NCCN3CCOCC3)[C@@H]2c2ccc(CO)cc2)nc1 :: -1.4
8. CCOC(=O)C[C@H]1[C@H](OC(=O)c2ccc(C(=O)c3ccccc3)cc2)[C@@H](NC(=O)c2ccc3ccccc3n2)c2cc(OCCCO)ccc2N1C(=O)c1ccc2ccccc2n1 :: 1.12

* * *

Biological target: Torsin-1A (Homo sapiens) (UniProt O14656)
Sequence (O14656 whole entry, looked up): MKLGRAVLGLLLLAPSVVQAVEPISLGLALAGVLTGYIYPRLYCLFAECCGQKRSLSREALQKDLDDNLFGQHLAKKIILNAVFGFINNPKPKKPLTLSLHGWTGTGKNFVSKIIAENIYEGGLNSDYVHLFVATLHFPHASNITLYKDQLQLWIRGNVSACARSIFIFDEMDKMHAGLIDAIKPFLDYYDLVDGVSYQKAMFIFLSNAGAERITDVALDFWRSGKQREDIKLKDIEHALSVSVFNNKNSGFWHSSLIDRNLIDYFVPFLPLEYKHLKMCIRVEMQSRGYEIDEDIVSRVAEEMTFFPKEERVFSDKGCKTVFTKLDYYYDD
Assay: TOR1A wild-type binding on microarray – cell lysate, small-molecule microarray, lysate, 635/667 nm, primary screen (AID 1149)
Conditions: COS7 hTOR1A-WT lysate, 635 nm fluorescence, higher = more signal
Quick rule for you: composite z-score at 0.4 or higher means Condition met, lower means Condition not met.

1. O=c1cccc(-c2cccc3ccccc23)o1 :: Condition not met
2. [N-]=[N+]=Nc1ccccc1C[C@]1(C(=O)N2CCCCC2)N=C(c2ccc(OCCCO)cc2)O[C@H]1c1ccccc1N=[N+]=[N-] :: Condition met
3. O=C1OCC=C[C@H]2OC34C=CCN(c5ccc6ccccc6c5)C(=O)[C@H]3N(CCO)C(=O)[C@@H]4[C@@H]12 (stereo not given in full) :: Condition not met
4. CC(=O)N1Cc2ccccc2C[C@@]2(N=C(c3ccc(OCCCO)cc3)O[C@H]2c2ccccc2)C1=O :: Condition met

* * *

Experiment: viability profiling in RPMI8226 myeloma cells – cell-based, resazurin fluorescence, basal, 24 h, PK04 Diversity Set, profiling panel (AID 1180);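 also: RPMI8826 multiple myeloma cell line at 5000 cells per well; test concentration not given here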
Conditions: higher = more signal
measurement-name: z-score

1. C=C(/C(=C/C[C@@H](OC(=O)c1ccncc1)c1ccc(CO)o1)c1cc(C(=O)OC)ccc1OC)C(C)C :: -0.533
2. [N-]=[N+]=NCc1ccccc1[C@@H]1OC(c2ccc(OCCCO)cc2)=N[C@]1(Cc1ccccc1)C(=O)O :: 0.469
3. COC(=O)[C@@]1(Cc2ccc(F)cc2)[C@H]2c3cc(C(=O)N4CCCC4)n(Cc4ccc(Cl)c(C(F)(F)F)c4)c3C[C@H]2CN1C(=O)c1ccccc1 :: -3.32
4. CCCC[C@@H]1C[C@H]1[C@@H](NC(=O)c1ccccc1)c1ccccc1 :: -1.07

* * *

Catalogue of z-score values
Assay: compound effects on multiple myeloma cell viability – MM1S, calcein-AM fluorescence, 48 h, basal, profiling panel (AID 1165);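 also: viability of MM1S multiple myeloma cells under basal unstimulated conditions; test concentration not given here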
Details: higher = more signal
measurement-name: z-score

1. CN1C(=O)C2C=CC(C(O)C(C)(C)C)N(Nc3ccccc3)C2C1=O (configuration not stated) :: 0.235
2. CC(C)(C)OC(=O)CC[C@@]1(C(N)=O)N=C(c2ccc(OCCCO)cc2)O[C@@H]1c1ccccc1N=[N+]=[N-] :: 1.46
3. C[n+]1ccc2ccc(O)cc2c1 :: 0.653
4. CC(C)[C@H]1COC(=O)N1C(=O)[C@H]1[C@@H](c2ccccc2)N(c2ccccc2)O[C@@H]1C :: -0.357
5. COCCOC(=O)N1C(=O)[C@@]2(c3cc(C#Cc4ccc(OC)cc4)ccc31)[C@H](C(N)=O)[C@H]1C(=O)O[C@H](c3ccccc3)[C@H](c3ccccc3)N1[C@@H]2c1ccc(O)cc1 :: 0.152
6. CC(C)N1C(=O)c2ccccc2[C@](C)(C(=O)NC2CC2)[C@@H]1c1ccc(CO)cc1 :: 0.0418
7. NC(=O)NCC#Cc1ccc2c(c1)[C@]1(C(=O)N2)[C@H](C(=O)NC[C@H](O)c2ccccc2)[C@H]2C(=O)O[C@H](c3ccccc3)[C@H](c3ccccc3)N2[C@@H]1c1ccccc1OCCO :: 0.325

* * *

Test: probe aXIP binding to arrayed compounds – biochemical, NeuroSMM set, 635/667 nm fluorescence, primary screen (AID 1119);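 also: probe is the protein aXip251-270 applied at 1 µg/mL to compound-printed slides; binding of probe to printed compounds measured as 667 nm fluorescence plus signal to noise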
Conditions: small-molecule microarray, called active from +8 up or from −8 down
The source made the active and inactive calls.
Outcome codes: active, inactive

1) C=CC[C@]1(C(=O)O)N=C(c2ccc(OCCCO)cc2)O[C@H]1c1ccccc1CN=[N+]=[N-] :: inactive
2) C=C(C(=O)CC[C@H](OC(=O)c1cccnc1)c1ccccc1OCCO)C(C)C :: inactive
3) CCCCC(=O)N(Cc1ccccc1F)[C@@H]1CC(C(=O)NCCO)=C[C@H](Oc2c(I)cc(CO)cc2OC)[C@H]1O :: inactive
4) [N-]=[N+]=NCc1ccccc1C[C@]1(C(=O)NCc2ccccc2)COC(c2ccc(OCCCO)cc2)=N1 :: inactive
5) Cc1ccc(S(=O)(=O)N2CC(C(=O)O)=CCC2c2ccccc2)cc1 (centres undefined) :: inactive
6) COc1ccc([Si](C)(C)[C@@H]2[C@@H](CCn3cc([C@H](O)c4ccccc4)nn3)O[C@]3(C(=O)N(C)c4ccccc43)[C@H]2C)cc1 :: inactive
7) Oc1ccc2cc[n+](Cc3cccc(OC(F)(F)F)c3)cc2c1 :: inactive
8) COCCCNC(=O)[C@@]1(C)c2ccccc2C(=O)N(Cc2ccccc2)[C@H]1c1ccc(CO)cc1 :: inactive
9) Cc1cccc(/C=C/C=O)c1 :: inactive
10) CC(C)(C)OC(=O)CC[C@@]1(C(N)=O)N=C(c2ccc(OCCCO)cc2)O[C@@H]1c1ccccc1N=[N+]=[N-] :: inactive
11) O=C(NCc1ccccc1)[C@@H]1c2ccccc2C(=O)N(C2CCCCC2)[C@H]1c1ccc(CO)cc1 :: inactive
12) O=C1O[C@H](c2ccccc2)[C@H](c2ccccc2)N2[C@H]1[C@@H](C(=O)N1CCCCCCC1)[C@]1(C(=O)Nc3ccc(C#CC4=CCCCC4)cc31)[C@H]2c1ccc(O)cc1 :: active
13) C=C(CCCC)C(=O)CC[C@H](OC(=O)c1ccccc1-c1ccccc1C(=O)O)c1ccc(CO)o1 :: inactive
14) CC(C)NC(=O)[C@@H]1c2ccccc2C(=O)N(C2CCCCC2)[C@H]1c1ccc(CO)cc1 :: inactive
15) C=CC[C@@]1(C(=O)NCc2ccccc2)N=C(c2ccc(OCCCO)cc2)O[C@@H]1c1ccccc1CN=[N+]=[N-] :: inactive
16) C=C(CCCC)C(=O)CC[C@H](OC(C)=O)c1ccc(CO)o1 :: inactive
17) O=C1OCC=C[C@H]2OC34C=CCN(CCN5CCOCC5)C(=O)[C@H]3N(CCCCCCO)C(=O)[C@@H]4[C@@H]12 (some centres undefined) :: inactive
18) CCCC[C@H]1OB(O)C[C@H]2C1=C(COc1ccccc1)C[C@H]1C(=O)N(Cc3ccccc3)C(=O)[C@H]12 :: inactive
19) C[n+]1ccc2ccc(O)cc2c1 :: inactive
20) O=C(CS)NCCCCCCNC(=O)[C@H]1C[C@H]2C(=O)N3CCC[C@H]3C(=O)N2[C@H]1c1ccc(O)cc1 :: inactive
21) C=C[C@H](C)[C@H](OC(=O)Nc1ccc(OC)cc1)c1ccc(O)c2ccccc12 :: inactive
22) CN1C(=O)C2C(C1=O)C1C=C(c3ccc(CO)cc3)C2C(C2CC2)N1Cc1sc2ccccc2c1Cl (centres undefined) :: inactive
23) COc1ccc(C(O)C2C=CC3C(=O)N(c4ccccc4)C(=O)C3N2Nc2ccccc2)c2ccccc12 (centres undefined) :: inactive
24) C=CC[C@]1(C(=O)NCCN2CCOCC2)N=C(c2ccc(OCCCO)cc2)O[C@H]1c1ccccc1N=[N+]=[N-] :: inactive
25) COCCCNC(=O)[C@]1(Cc2ccccc2N=[N+]=[N-])N=C(c2ccc(OCCCO)cc2)O[C@@H]1c1ccccc1CN=[N+]=[N-] :: inactive
26) COC(=O)c1c(CC[C@@H](CO)NC(=O)Nc2ncn[nH]2)oc(C(=O)Cc2ccccc2)c1C(=O)OC :: inactive
27) CN1C(=O)C2C=CC(C(O)C(C)(C)C)N(Nc3ccccc3)C2C1=O (centres undefined) :: inactive
28) COC(=O)C(CC#Cc1ccc2c(c1)[C@]1(C(=O)N2)[C@H](C(=O)N2CCCCCCC2)[C@H]2C(=O)O[C@H](c3ccccc3)[C@H](c3ccccc3)N2[C@@H]1c1ccccc1OCCO)C(=O)OC :: active
29) CCOC(=O)C=Cc1cccc(OC)c1O :: inactive
30) C=CCN1Cc2ccccc2C[C@]2(N=C(c3ccc(OCCCO)cc3)O[C@@H]2c2ccccc2)C1=O :: inactive
31) CC(C)[Si]1(C(C)C)O[C@@H](c2ccccc2)c2cc(-c3ccc(-c4ccc(Cl)c(Cl)c4)o3)nc(CCc3ccccc3)c21 :: inactive
32) CCOC(=O)C1=CC[C@@H](c2ccccc2)N(S(=O)(=O)c2ccc(C)cc2)[C@H]1c1ccc(C#N)cc1 :: inactive
33) C=C(CCCC)C(=O)CC[C@@H](OC(=O)c1ccccc1-c1ccccc1C(=O)O)c1ccc(CO)o1 :: inactive
34) CCOC(=O)N1C(c2ccc(OCCCO)cc2)=NC(C(=O)OC)N1C(=O)OCC (centres undefined) :: inactive
